Test system: HT-29 (human colon adenocarcinoma)
Assay: Inhibition of cell proliferation (MTT), HT-29
Type: cell-based
Conditions: Homo sapiens, HT-29, 48 h, Table 2; 48 h of treatment (footnote); average ±SD of three experiments
pIC50: −log10 of the molar value.
Reported pIC50 values are given for each entry in this list.
observation_type: pIC50

{"compound": "COc1ccc(/C=C\\c2cc(OC)c(OC)c(OC)c2)cc1NC(=O)[C@H](N)C(C)C [Compound 10.1]", "recorded_number": 5.32}
{"compound": "COc1ccc(/C=C\\c2cc(OC)c(OC)c(OC)c2)cc1NC(=O)[C@H]1CCCN1C(=O)OCC1c2ccccc2-c2ccccc21 [Compound 9.4]", "recorded_number": 5.28}
{"compound": "COc1ccc(/C=C\\c2cc(OC)c(OC)c(OC)c2)cc1NC(=O)[C@H](N)Cc1ccccc1 [Compound 10.3]", "recorded_number": 5.41}
{"compound": "COc1ccc(/C=C\\c2cc(OC)c(OC)c(OC)c2)cc1NC(=O)[C@@H](CC(C)C)NC(=O)OCC1c2ccccc2-c2ccccc21 [Compound 9.2]", "recorded_number": 4.36}
{"compound": "COc1ccc(/C=C\\c2cc(OC)c(OC)c(OC)c2)cc1NC(=O)[C@H](CC(C)C)NC(=O)OCC1c2ccccc2-c2ccccc21 [Compound 7.4]", "recorded_number": 7.64}
{"compound": "COc1ccc(/C=C\\c2cc(OC)c(OC)c(OC)c2)cc1NC(=O)[C@@H]1CCCN1C(=O)OCC1c2ccccc2-c2ccccc21 [Compound 7.6]", "recorded_number": 6.49}
{"compound": "COc1ccc(/C=C\\c2cc(OC)c(OC)c(OC)c2)cc1NC(=O)[C@H](CCSC)NC(=O)OCC1c2ccccc2-c2ccccc21 [Compound 7.9]", "recorded_number": 7.48}

====

Tested on: MCF-7 (breast adenocarcinoma)
Test: Inhibition of cell proliferation (MTT), MCF-7
Assay type: cell-based, human
Details: Homo sapiens, MCF7, 48 h, Table 2; 48 h of treatment (footnote); average ±SD of three experiments
observation_type: IC50 (nM)

{"molecule": "COc1ccc(/C=C\\c2cc(OC)c(OC)c(OC)c2)cc1NC(=O)[C@@H]1CCCN1C(=O)OCC1c2ccccc2-c2ccccc21 [Compound 7.6]", "units": "nM", "recorded_number": 58}
{"molecule": "COc1ccc(/C=C\\c2cc(OC)c(OC)c(OC)c2)cc1NC(=O)[C@H]1CCCN1C(=O)OCC1c2ccccc2-c2ccccc21 [Compound 9.4]", "units": "nM", "recorded_number": 5300}
{"molecule": "COc1ccc(/C=C\\c2cc(OC)c(OC)c(OC)c2)cc1NC(=O)CNC(=O)OCC1c2ccccc2-c2ccccc21 [Compound 7.1]", "units": "nM", "recorded_number": 4.8}
{"molecule": "COc1ccc(/C=C\\c2cc(OC)c(OC)c(OC)c2)cc1NC(=O)[C@H](Cc1ccccc1)NC(=O)OCC1c2ccccc2-c2ccccc21 [Compound 7.5]", "units": "nM", "recorded_number": 14}
{"molecule": "COc1ccc(/C=C\\c2cc(OC)c(OC)c(OC)c2)cc1NC(=O)[C@H](NC(=O)OCC1c2ccccc2-c2ccccc21)C(C)C [Compound 9.1]", "units": "nM", "recorded_number": 4800}
{"molecule": "COc1ccc(/C=C\\c2cc(OC)c(OC)c(OC)c2)cc1NC(=O)[C@@H](NC(=O)OCC1c2ccccc2-c2ccccc21)C(C)O (stereo partly drawn) [Compound 7.7]", "units": "nM", "recorded_number": 25}

====

System: c-Myc gene
Experiment: c-Myc gene expression by RT-qPCR in HT-29 cells
Type: cell-based, human
Conditions: HT-29, 48 h; discussion; concentration per compound

{"compound": "COc1ccc(/C=C\\c2cc(OC)c(OC)c(OC)c2)cc1NC(=O)[C@@H](N)C(C)O (stereo partly shown) [Compound 8.7]", "downregulation of c-Myc gene expression": "more than 60%"}
{"compound": "COc1ccc(/C=C\\c2cc(OC)c(OC)c(OC)c2)cc1NC(=O)[C@H](C)NC(=O)OCC1c2ccccc2-c2ccccc21 [Compound 7.2]", "downregulation of c-Myc gene expression": "more than 60%"}
{"compound": "COc1ccc(/C=C\\c2cc(OC)c(OC)c(OC)c2)cc1NC(=O)[C@H](Cc1ccccc1)NC(=O)OCC1c2ccccc2-c2ccccc21 [Compound 7.5]", "downregulation of c-Myc gene expression": "more than 60%"}

====

Entries and their IC50
Tested on: HT-29 (human colon adenocarcinoma)
Assay: Inhibition of cell proliferation (MTT), HT-29
Assay type: cell-based
Conditions: Homo sapiens, HT-29, 48 h, Table 2; 48 h of treatment (footnote); average ±SD of three experiments
Source text: The ability of the synthetic compounds to inhibit cell proliferation was established by means of their IC50 values towards the tumor cell lines HT-29 (human colon adenocarcinoma), MCF-7 (breast adenocarcinoma) and A-549 (human pulmonary adenocarcinoma), as well as towards the nontumor cell line HEK-293 (human embryonic kidney cells). […]

{"structure_as_smiles": "COc1ccc(/C=C\\c2cc(OC)c(OC)c(OC)c2)cc1NC(=O)[C@H](N)CC(C)C", "target_under_test": "HT-29 (human colon adenocarcinoma)", "units": "nM", "censoring_qualifier": "=", "IC50": 1050}
{"structure_as_smiles": "COc1ccc(/C=C\\c2cc(OC)c(OC)c(OC)c2)cc1NC(=O)[C@H]1CCCN1", "target_under_test": "HT-29 (human colon adenocarcinoma)", "units": "nM", "censoring_qualifier": "=", "IC50": 4400}
{"structure_as_smiles": "COc1ccc(/C=C\\c2cc(OC)c(OC)c(OC)c2)cc1NC(=O)[C@@H](N)Cc1ccccc1", "target_under_test": "HT-29 (human colon adenocarcinoma)", "units": "nM", "censoring_qualifier": "<", "IC50": 5}

====

List of pIC50 values.
Tested on: A-549 (human pulmonary adenocarcinoma)
Assay: Inhibition of cell proliferation (MTT), A-549
Type: cell-based
Conditions: Table 1; 48 h of treatment (footnote); average ±SD of three experiments
pIC50: −log10 of the molar value.
observation_type: pIC50

{"molecule": "COC(=O)[C@H](Cc1ccccc1)NC(=O)COc1cc(/C=C\\c2cc(OC)c(OC)c(OC)c2)ccc1OC [Compound 3.4]", "observation_type": "pIC50", "recorded_number": 5.05}
{"molecule": "COC(=O)[C@H](CC(C)C)NC(=O)COc1cc(/C=C\\c2cc(OC)c(OC)c(OC)c2)ccc1OC [Compound 3.3]", "observation_type": "pIC50", "recorded_number": 5.10}
{"molecule": "CCOC(=O)COc1cc(/C=C\\c2cc(OC)c(OC)c(OC)c2)ccc1OC [Compound 1]", "observation_type": "pIC50", "recorded_number": 5.05}
{"molecule": "COC(=O)[C@H](NC(=O)COc1cc(/C=C\\c2cc(OC)c(OC)c(OC)c2)ccc1OC)C(C)C [Compound 5.1]", "observation_type": "pIC50", "recorded_number": 5.30}
{"molecule": "COC(=O)[C@H](CCSC)NC(=O)COc1cc(/C=C\\c2cc(OC)c(OC)c(OC)c2)ccc1OC [Compound 3.9]", "observation_type": "pIC50", "recorded_number": 5.00}

====

Test system: HT-29 (human colon adenocarcinoma)
Assay: Inhibition of cell proliferation (MTT), HT-29
Type: cell-based
Conditions: Homo sapiens, HT-29, 48 h, Table 2; 48 h of treatment (footnote); average ±SD of three experiments
Text: The ability of the synthetic compounds to inhibit cell proliferation was established by means of their IC50 values towards the tumor cell lines HT-29 (human colon adenocarcinoma), MCF-7 (breast adenocarcinoma) and A-549 (human pulmonary adenocarcinoma), as well as towards the nontumor cell line HEK-293 (human embryonic kidney cells). […]
observation_type: IC50 (nM)

{"compound": "COc1ccc(/C=C\\c2cc(OC)c(OC)c(OC)c2)cc1NC(=O)[C@@H](Cc1ccccc1)NC(=O)OCC1c2ccccc2-c2ccccc21", "observation_type": "IC50", "censoring_qualifier": "=", "recorded_number": 13000}
{"compound": "COc1ccc(/C=C\\c2cc(OC)c(OC)c(OC)c2)cc1NC(=O)CN", "observation_type": "IC50", "censoring_qualifier": "=", "recorded_number": 10}
{"compound": "COc1ccc(/C=C\\c2cc(OC)c(OC)c(OC)c2)cc1NC(=O)[C@H](Cc1ccccc1)NC(=O)OCC1c2ccccc2-c2ccccc21", "observation_type": "IC50", "censoring_qualifier": "=", "recorded_number": 8}
{"compound": "COc1ccc(/C=C\\c2cc(OC)c(OC)c(OC)c2)cc1NC(=O)[C@H](C)N", "observation_type": "IC50", "censoring_qualifier": "<", "recorded_number": 5}
{"compound": "COc1ccc(/C=C\\c2cc(OC)c(OC)c(OC)c2)cc1NC(=O)[C@@H](N)C(C)C", "observation_type": "IC50", "censoring_qualifier": "=", "recorded_number": 13.3}
{"compound": "COc1ccc(/C=C\\c2cc(OC)c(OC)c(OC)c2)cc1N", "observation_type": "IC50", "censoring_qualifier": "=", "recorded_number": 22}
{"compound": "COc1ccc(/C=C\\c2cc(OC)c(OC)c(OC)c2)cc1NC(=O)[C@@H](NC(=O)OCC1c2ccccc2-c2ccccc21)C(C)O (some centres unmarked)", "observation_type": "IC50", "censoring_qualifier": "=", "recorded_number": 9}
{"compound": "COc1ccc(/C=C\\c2cc(OC)c(OC)c(OC)c2)cc1NC(=O)[C@@H](N)CCSC", "observation_type": "IC50", "censoring_qualifier": "<", "recorded_number": 5}
{"compound": "COc1ccc(/C=C\\c2cc(OC)c(OC)c(OC)c2)cc1NC(=O)[C@@H](N)C(C)O (some centres unmarked)", "observation_type": "IC50", "censoring_qualifier": "=", "recorded_number": 8}
{"compound": "COc1ccc(/C=C\\c2cc(OC)c(OC)c(OC)c2)cc1NC(=O)[C@H](NC(=O)OCC1c2ccccc2-c2ccccc21)C(C)C", "observation_type": "IC50", "censoring_qualifier": "=", "recorded_number": 5500}
{"compound": "COc1ccc(/C=C\\c2cc(OC)c(OC)c(OC)c2)cc1NC(=O)[C@@H](NC(=O)OCC1c2ccccc2-c2ccccc21)C(C)C", "observation_type": "IC50", "censoring_qualifier": "=", "recorded_number": 130}
{"compound": "COc1ccc(/C=C\\c2cc(OC)c(OC)c(OC)c2)cc1NC(=O)CNC(=O)OCC1c2ccccc2-c2ccccc21", "observation_type": "IC50", "censoring_qualifier": "=", "recorded_number": 7}
{"compound": "COc1ccc(/C=C\\c2cc(OC)c(OC)c(OC)c2)cc1NC(=O)[C@H](Cc1ccc(O)cc1)NC(=O)OCC1c2ccccc2-c2ccccc21", "observation_type": "IC50", "censoring_qualifier": "=", "recorded_number": 18}
{"compound": "COc1ccc(/C=C\\c2cc(OC)c(OC)c(OC)c2)cc1NC(=O)[C@@H]1CCCN1", "observation_type": "IC50", "censoring_qualifier": "=", "recorded_number": 700}
